Target: EIF2AK3 (human) (UniProt Q9NZJ5)
Sequence (Q9NZJ5 whole entry, looked up): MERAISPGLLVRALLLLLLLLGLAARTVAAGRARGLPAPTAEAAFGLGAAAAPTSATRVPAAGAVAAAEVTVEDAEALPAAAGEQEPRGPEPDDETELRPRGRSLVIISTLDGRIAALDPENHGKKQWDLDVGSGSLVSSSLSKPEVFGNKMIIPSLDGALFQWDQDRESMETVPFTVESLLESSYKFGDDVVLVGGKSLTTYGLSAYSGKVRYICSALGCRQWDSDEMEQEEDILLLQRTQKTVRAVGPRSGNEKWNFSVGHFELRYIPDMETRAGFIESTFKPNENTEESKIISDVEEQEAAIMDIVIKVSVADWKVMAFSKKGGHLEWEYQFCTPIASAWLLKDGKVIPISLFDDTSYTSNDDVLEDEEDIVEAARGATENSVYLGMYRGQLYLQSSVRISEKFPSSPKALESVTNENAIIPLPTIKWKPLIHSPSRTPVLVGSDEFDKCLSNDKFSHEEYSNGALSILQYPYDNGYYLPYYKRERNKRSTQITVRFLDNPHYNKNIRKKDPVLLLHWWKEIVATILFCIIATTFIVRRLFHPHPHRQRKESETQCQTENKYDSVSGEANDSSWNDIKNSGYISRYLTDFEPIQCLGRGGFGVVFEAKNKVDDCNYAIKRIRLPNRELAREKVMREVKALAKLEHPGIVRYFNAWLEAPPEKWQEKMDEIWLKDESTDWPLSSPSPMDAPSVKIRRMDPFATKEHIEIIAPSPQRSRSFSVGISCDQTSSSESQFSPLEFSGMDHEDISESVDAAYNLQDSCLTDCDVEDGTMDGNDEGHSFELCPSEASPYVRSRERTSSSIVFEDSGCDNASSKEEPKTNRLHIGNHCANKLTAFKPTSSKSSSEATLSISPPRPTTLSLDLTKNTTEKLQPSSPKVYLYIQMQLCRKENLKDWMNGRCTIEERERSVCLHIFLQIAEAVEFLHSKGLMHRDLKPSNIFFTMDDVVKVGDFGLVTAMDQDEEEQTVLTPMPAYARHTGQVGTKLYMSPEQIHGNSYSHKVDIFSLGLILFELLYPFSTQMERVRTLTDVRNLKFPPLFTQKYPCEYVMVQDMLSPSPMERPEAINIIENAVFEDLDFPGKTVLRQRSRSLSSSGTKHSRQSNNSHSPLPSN
Assay: radiometric filter-binding kinase assay
Details: compound 0.01 µM
VALUE_KIND: residual activity (%)

Recorded residual activity, per entry:
Task item: What does the data say about its residual activity? Entry: `COc1ccc(N(C(=O)Nc2c(C)cccc2C)c2cc(Nc3ccc(N4CCN(C)CC4)cc3)ncn2)c(OC)c1`
Reply: 91

Task item: What does the data say about its residual activity? Entry: COc1cc(O)c2c(c1)[C@H]1OC1C[C@H](O)[C@H](O)C(=O)/C=C\C[C@H](C)OC2=O (some centres undefined)
Reply: 105

A = O=C(Nc1nc2cc(C(F)(F)F)cc(NC3CC3)n2n1)c1cccnc1
B = CNC(=O)C1[C@H]2O[C@@](C)([C@@H]1N)n1c3ccccc3c3c4c(c5c6ccccc6n2c5c31)C(=O)NC4 (some centres undefined)
Task item: Which of the two items, A and B , has the greater recorded residual activity? # reply format: chosen label
Reply: A

###

Tested on: AKT1 (human), P31749 [S473D]
Sequence (P31749 whole entry S473D, looked up): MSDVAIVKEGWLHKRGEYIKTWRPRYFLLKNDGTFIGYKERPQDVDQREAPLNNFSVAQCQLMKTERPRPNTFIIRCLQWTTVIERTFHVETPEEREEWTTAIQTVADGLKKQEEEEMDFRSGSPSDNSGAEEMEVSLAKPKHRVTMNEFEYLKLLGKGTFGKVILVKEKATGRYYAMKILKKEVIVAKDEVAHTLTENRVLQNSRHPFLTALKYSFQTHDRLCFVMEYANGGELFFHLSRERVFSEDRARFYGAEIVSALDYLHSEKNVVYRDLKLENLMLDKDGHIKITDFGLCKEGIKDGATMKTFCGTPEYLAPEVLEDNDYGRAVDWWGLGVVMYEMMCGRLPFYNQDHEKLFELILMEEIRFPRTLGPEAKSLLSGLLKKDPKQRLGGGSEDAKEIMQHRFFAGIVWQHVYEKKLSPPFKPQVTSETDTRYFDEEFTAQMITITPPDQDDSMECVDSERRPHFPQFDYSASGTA
Test: radiometric filter-binding kinase assay
Conditions: compound 1.0 µM
VALUE_KIND: residual activity (%)

Task item: What does the data say about its residual activity? Entry: CC1=C(CO)C(=O)O[C@@H]([C@@H](C)[C@H]2CC[C@H]3[C@@H]4C[C@H]5O[C@]56[C@@H](O)C=CC(=O)[C@]6(C)C4CC[C@]23C)C1 (stereo not given in full)
Reply: 99

1 = CCCC(CCC)C(=O)O
2 = CCc1cncnc1N1CCN(Cc2nc3cc(C(F)(F)F)ccc3[nH]2)CC1
Task item: Which of the two items, 1 and 2 , has the greater recorded residual activity? # reply format: chosen label
Reply: 1

###

Molecular target: EPHB1 (human)
Experiment: radiometric filter-binding kinase assay
Conditions: compound 0.1 µM
VALUE_KIND: residual activity (%)

Task item: Write down the reported residual activity of `CCCCCc1ccc(/C=C/[C@H](O)[C@@H](CO)NC)cc1` , test system: EPHB1 (human).
Reply: 126

Task item: Write down the reported residual activity of `C=CC(=O)N1CCC[C@@H](n2nc(-c3ccc(Oc4ccccc4)cc3)c3c(N)ncnc32)C1` , test system: EPHB1 (human).
Reply: 72

Task item: Write down the reported residual activity of `O=C(NCCCNc1nc(Nc2cccc(CN3CCOCC3)c2)ncc1C1CC1)C1CCC1` , test system: EPHB1 (human).
Reply: 107

Task item: Write down the reported residual activity of `NC1(c2ccc(-c3nc4ccn5c(=O)[nH]nc5c4cc3-c3ccccc3)cc2)CCC1` , test system: EPHB1 (human).
Reply: 96

Task item: Write down the reported residual activity of CNC(=O)C1[C@H]2O[C@@](C)([C@@H]1N)n1c3ccccc3c3c4c(c5c6ccccc6n2c5c31)C(=O)NC4 (stereo partly specified) , test system: EPHB1 (human).
Reply: 56

Task item: Write down the reported residual activity of `CN1CCN(CCOc2cc(OC3CCOCC3)c3c(Nc4c(Cl)ccc5c4OCO5)ncnc3c2)CC1` , test system: EPHB1 (human).
Reply: 81

Task item: Write down the reported residual activity of `CCn1c(-c2nonc2N)nc2cncc(CNC3CCNCC3)c21` , test system: EPHB1 (human).
Reply: 92

Task item: Write down the reported residual activity of `Cc1ccc(-c2ccc3c(ccc4sc5c(c43)NC[C@@H](C)NC5=O)n2)cn1` , test system: EPHB1 (human).
Reply: 113

a = Cc1cc(NC(=O)c2cccc(NC(=O)/C=C/CN(C)C)c2)ccc1Nc1nccc(-c2cccnc2)n1
b = COc1ccc(-n2ncc3cnc(Nc4cc(OC)c(OC)c(OCCCN5CCN(C)CC5)c4)nc32)cc1
c = Cc1ccc(Sc2cnc(Nc3cccc(Br)n3)s2)cc1C(=O)N1CCN(C(=O)CN)CC1
Task item: Hey, can you sort those compounds up there by residual activity, smallest first? To answer, write out the labels according to the requested order.
Reply: b, c, a
(b: 8%, c: 53%, a: 97%)
